Tested on: BDF1 mice, P388 leukemia ip, median survival T/C
Method: NCI In Vivo Anticancer Drug Screen. Data for tumor model P388 Leukemia (intraperitoneal) in B6D2F1 (BDF1) mice
Conditions Used: endpoint: median survival time; dose: 12.5 mg/kg/injection; schedule: Q01DX009 (ip); vehicle: water; higher = longer survival
Inconclusive results and toxic doses are left out.
Listing of recorded T/C by entry.

| Compound | T/C |
| --- | --- |
| CC(C)C(=O)c1ccc(-c2ccccc2)cc1 | 105 % of control |
| O=C1c2ccccc2C(=O)N1CC[P+](c1ccccc1)(c1ccccc1)c1ccccc1 | 158 % of control |
| COc1cccc2c1C(=O)c1c(O)c3c(c(O)c1C2=O)C[C@@](O)(C(C)=O)C[C@@H]3OC1CC(NC(=O)c2ccncc2)C(O)C(C)O1 (stereo partly specified) | 159 % of control |
| O=C(NCCNCc1ccccc1)c1ccccc1 | 96 % of control |
| O=C(O)C1(C(=O)O)CCC2(CCCCC2)CC1 | 94 % of control |

Q) Which T/C value belongs to CC(CC(=O)O)C(C(=O)O)C(=O)O (stereo unspecified) ?
A) 108 % of control

Q) Look up T/C for this compound: `O/C(=C/C(=S)S)c1cccs1`
A) 94 % of control

Q) Value lookup for T/C; key = O=c1oc2ccccc2c2c1C(c1ccc3c(c1)OCO3)C=C(c1ccc3c(c1)OCO3)O2 (stereo unspecified)
A) 97 % of control

Q) Item `O=C(O)c1occ(Cl)c1Cl` has what recorded T/C?
A) 94 % of control

Q) // T/C lookup, key: O=C(N=c1cc(-c2ccc(Cl)cc2)ss1)C(Cc1ccccc1)N1C(=O)c2ccccc2C1=O (stereo unspecified)
A) 104 % of control

Q) Please give the measured T/C for this compound: `CC(=N\O)/C(C)=N/O.CC(=N\O)/C(C)=N/O.CC1CC[N-]CC1.CC1CC[N-]CC1.CC1CC[N-]CC1.CC1CC[N-]CC1.[Cl][Rh][Cl].[Pt+2]`
A) 99 % of control

====

Test system: BDF1 mice, P388 leukemia ip, median survival T/C
Method: NCI In Vivo Anticancer Drug Screen. Data for tumor model P388 Leukemia (intraperitoneal) in B6D2F1 (BDF1) mice
Conditions Used: endpoint: median survival time; dose: 200.0 mg/kg/injection; schedule: Q01DX009 (ip); vehicle: saline with Tween-80
Inconclusive results and toxic doses are left out. How the source made its calls: active means survival T/C of 150% or more; inactive means T/C below 125% in these data.
Thanks in advance; please answer with one of these: active, inactive

Solved cases (10 shown):
| Compound | Label Value |
| --- | --- |
| CCCCOC(=O)c1ccc(OP(=O)(N(C)C)N(C)C)cc1 | inactive |
| OC1CC2CC1C(Cl)C2Cl (centres undefined) | inactive |
| COc1ccc(/C=C/C(=O)c2ccc3c(c2)OCO3)cc1OC | active |
| O=C(/C=C/c1ccc(OCc2ccccc2)cc1)c1ccccn1 | inactive |
| Clc1cccc(NC2=NCCN=C(Nc3cccc(Cl)c3Cl)SS2)c1Cl | inactive |
| C[N+](C)(C)CCOC(=O)c1ccccc1 | inactive |
| c1ccc(-c2nc3ccccc3nc2-c2ccc(-c3ccc(-c4nc5ccccc5nc4-c4ccccc4)cc3)cc2)cc1 | inactive |
| Cc1nc2ccccc2nc1CC(=O)c1ccccc1 | inactive |
| COc1ccc(CCNC(=O)/C=C\C(=O)O)cc1OC | inactive |
| CCSC1(SCC)C(=O)OC2=C(CCCCC2)C1N(C)C (centres undefined) | inactive |

Q) Called result for CCN1CC2(CO)CCC(OC)C34C5CC6C(OC)CC(O)(C5C6OC)C(O)(C(OC)C23)C14 (centres undefined)
A) inactive

Q) Fill in: this test's call for `COc1ccc(CN2CCN(Cc3ccc(OC)c(OC)c3)C2c2ccc(OC)c(OC)c2)cc1OC` is ___
A) inactive
